# System: CAKI-1 renal
# Test Method Notes: NCI tumour cell line growth inhibition, 48 h
Property Label: TGI

Solved entries:
> print(dat)
                                   compound  observed.value
1  C/C(=N\NC(=S)Nc1ccc(Cl)cc1)c1nc2ncccc2[nH]1         33.2 µM
2          O=C(O)CN=c1c2ccccc2n(O)c2ccccc12        > 100 µM

Exercise: Fill blank: measured TGI of the compound Cn1ncnc1C1c2n[nH]c(=O)c3cc(F)cc(c23)NC1c1ccc(F)cc1 (stereo not drawn) is ____.
Solution: > 100 µM

---

# System: ACHN renal
# Test Method Notes: NCI tumour cell line growth inhibition, 48 h
Entries and their measured GI50 follow.

Exercise: Fill blank: measured GI50 of the compound CNC(=O)c1cncc(/C=C/c2c(Cl)cccc2Cl)c1 is ____.
Solution: > 23.2 µM

Exercise: Same question, COc1ccc(CN=C(N)N=C(N)N)cc1OC this time
Solution: > 1000 µM

Exercise: Same question, CCCCN(CCCC)CCC(O)c1cc2ccc(C(F)(F)F)cc2c2cc(C(F)(F)F)ccc12 (stereo not given) this time
Solution: 2.94 µM

Exercise: Same question, COc1ccc2c(c1OC)C(=O)O[C@@H]2[C@H]1c2c(c(Br)c3c(c2OC)OCO3)CCN1C this time
Solution: > 100 µM

---

# System: HCC-2998 colon
# Test Method Notes: NCI tumour cell line growth inhibition, 48 h; in the data active = GI50 below about 0.43 µM; inactive = the rest
Reply using exactly one outcome from class 1 (active), class 0 (inactive)

> print(dat)
                                   molecule       tested.on    label
1  CCc1nc(N)nc(N)c1C#CC(C)c1cc(-c2ccnc(C)c2)c2oc(C)nc2c1 (stereo not drawn)  HCC-2998 colon  class 1

Exercise: Name the outcome recorded for Cc1ccc(S(=O)(=O)Nc2cc(Sc3ccccc3)c(O)c3ccccc23)cc1 in the assay.
Solution: class 0

Exercise: Same question, CN(CCCN(C)CCC1CCCCC1)CCC1CCCCC1 this time
Solution: class 0

---

Entries and their measured GI50 follow.
# Test system: OVCAR-5 ovarian
# Test Method Notes: NCI tumour cell line growth inhibition, 48 h

> print(dat)
                                   compound  observed.value
1  NCCSC(C[N+](=O)[O-])c1ccccc1Cl (stereo unspecified)         4.66 µM

Exercise: Reported GI50 for OVCAR-5 ovarian, given O=C(Cn1c2ccccc2c2ccncc21)N/N=C\c1ccc2ccccc2c1 ?
Solution: 36.5 µM

Exercise: Same question, CN(C)N=Nc1nn(C(=O)Nc2ccc(Cc3ccccc3)cc2)c2ccccc12 this time
Solution: > 21.6 µM

Exercise: Same question, COC(=O)Nc1nc2ccc(S(=O)(=O)c3ccc(NC(=O)Nc4cc(C(F)(F)F)ccc4F)cc3)cc2[nH]1 this time
Solution: > 25 µM

Exercise: Same question, COc1cc(NC(=O)c2cc(O)c(C/C=C(\C)CCC=C(C)C)c(O)c2)cc2c1O[C@]1(C)CC[C@@H](O)C(C)(C)[C@H]1C2 this time
Solution: 4.09 µM

Exercise: Same question, Oc1ccc(O)c2c1C1(Cl)C(Cl)=C(Cl)C2(Cl)C1(Cl)Cl this time
Solution: 12.6 µM

Exercise: Same question, O=[N+]([O-])c1cc2c(ccc3occc32)o1 this time
Solution: 3.5 µM

Exercise: Same question, Cc1cn(Cc2ccccc2CCl)c(=O)n(Cc2ccccc2CCl)c1=O this time
Solution: 2.61 µM

---

# Tested on: M14 melanoma
# Test Method Notes: NCI tumour cell line growth inhibition, 48 h
Property Label: TGI (µM)
Entry rule: numbers only, all in µM.

Solved entries:
> print(dat)
                                   compound  property.label  observed.value
1  O=[N+]([O-])c1ccc2[nH]c(O)c(N=NC(=S)Nc3ccccc3)c2c1             TGI            22.4
2  COC(=O)C1=C(O)C(C(=O)OC)[C@@]2(O)[C@@H](C(=O)OC)CC[C@@H]1[C@@H]2C(=O)OC (stereo not given in full)             TGI            62.6
3  O=C(Cn1c2ccccc2c2ccncc21)N/N=C\c1ccc2ccccc2c1             TGI            50.2
4  OC1(c2ccc3ccccc3c2)c2c(c3ccccc3c3ccccc23)C2=NCCN21 (stereo not given)             TGI            4.29

Shift focus to the following entry.
Exercise: Fill blank: measured TGI of the compound CCC(=O)c1c(C(F)(F)F)n([O-])c2ccccc2[n+]1=O is ____.
Solution: 6.19

---

# Tested on: HL-60(TB) leukemia
# Test Method Notes: NCI tumour cell line growth inhibition, 48 h; in the data active = GI50 below about 0.43 µM; inactive = the rest
Reply using exactly one outcome from active, inactive

> print(dat)
                                   molecule     label
1  CC1=NN(C(=O)c2nn(-c3ccc(Cl)cc3)cc2O)C(=O)C1  inactive
2  COc1cc2nc(N3CCC[C@@H](NC4=CC(=O)c5ccccc5C4=O)C3)nc(N)c2cc1OC  inactive
3  COc1cc(NC(=O)c2cc(O)c(C/C=C(\C)CCC=C(C)C)c(O)c2)cc2c1O[C@]1(C)CC[C@@H](O)C(C)(C)[C@H]1C2  inactive
4  CN(C)c1ncnc2c1ccn2C1OC(CO)C(O)C1O (stereo not given)    active

Now let's try a different one.
Exercise: Name the outcome recorded for Cc1ccc(-c2c3c(N)c4c(nc3nc3c2c(C)nn3-c2ccccc2)CCC4)cc1 in the assay.
Solution: inactive

---

Entries and their measured TGI follow.
# Tested on: HOP-62 NSCLC
# Test Method Notes: NCI tumour cell line growth inhibition, 48 h

Solved entries:
> print(dat)
                                   molecule  property.label  observed.value
1  COc1ccccc1N1C(=O)CC(=O)N(C(=O)CCCCCCCCC(=O)N2C(=O)CC(=O)N(c3ccccc3OC)C2=S)C1=S             TGI        > 100 µM
2  Cc1ccc(Nc2cn(COCc3ccccc3)c(=O)[nH]c2=O)cc1             TGI        > 100 µM
3  COc1ccc(OC)c(/C=N/N=C2\C(=O)Nc3c(Cl)cc(Cl)cc32)c1             TGI         79.4 µM
4  N#CC(C(=O)CCC(=O)Nc1ccc(Cl)c(Cl)c1)c1ccc(Cl)cc1 (stereo unspecified)             TGI        > 100 µM
5                              NCCCCCNOCCCN             TGI        > 100 µM

Shift focus to the following entry.
Exercise: Reported TGI for HOP-62 NSCLC, given O=C1/C(=C\c2ccccc2)c2ccccc2N1/N=C\c1ccccc1 ?
Solution: > 100 µM

---

# Test system: UACC-62 melanoma
# Test Method Notes: NCI tumour cell line growth inhibition, 48 h
Property Label: TGI

Solved entries:
> print(dat)
                                   compound         tested.on  observed.value
1  Nc1cc(N)c(N=Nc2cccc3c(S(=O)(=O)O)cccc23)cc1N=Nc1cc([N+](=O)[O-])ccc1O  UACC-62 melanoma         59.2 µM
2            CNc1ncnc2c1cnn2Cc1cn(CCCCO)nn1  UACC-62 melanoma        > 100 µM

Exercise: Fill blank: measured TGI of the compound S=C(Nc1cccc(C2(N3CCCCC3)CCCCC2)c1)Nc1cccc(C2(N3CCCCC3)CCCCC2)c1 is ____.
Solution: 33.3 µM

---

# Tested on: MDA-MB-231 breast
# Test Method Notes: NCI tumour cell line growth inhibition, 48 h
Property Label: TGI

> print(dat)
                                   molecule          tested.on  observed.value
1  O=c1[nH]nc(-c2ccccc2)c2c(-c3ccccc3)onc12  MDA-MB-231 breast        > 100 µM
2            CNc1ncnc2c1cnn2Cc1cn(CCCCO)nn1  MDA-MB-231 breast        > 100 µM

Exercise: Reported TGI for MDA-MB-231 breast, given CCOC(=O)NC(=S)NC(C)c1ccccc1 (configuration not stated) ?
Solution: > 100 µM

Exercise: Same question, OC1(c2ccc3ccccc3c2)c2c(c3ccccc3c3ccccc23)C2=NCCN21 (configuration not stated) this time
Solution: > 60.6 µM

Exercise: Same question, COc1cc(C2S/C(=C/c3ccccc3)C(=O)N2c2ccccc2Cl)cc(OC)c1OC (configuration not stated) this time
Solution: 67.3 µM

Exercise: Same question, CC(Nc1n[nH]c(=O)c2c1nnn2Cc1ccccc1)c1ccccc1 (configuration not stated) this time
Solution: > 100 µM

Exercise: Same question, Cc1[nH]c2ccccc2c1C1=CC(=O)N(c2ccccc2)C1=O this time
Solution: > 100 µM

Exercise: Same question, CCOC(=O)/C(=N/Nc1ccc(Cl)cc1)N1C(=S)C=C(C)NN(C)C1=S this time
Solution: > 100 µM

Exercise: Same question, O=C1C(NS(=O)(=O)c2ccccc2)=C(N(Cc2ccccc2)Cc2ccccc2)C(=O)c2ccccc21 this time
Solution: > 100 µM

Exercise: Same question, COc1cc2nncc(SCc3ccc(Cl)c(Cl)c3)c2cc1OC this time
Solution: > 100 µM

Exercise: Same question, Oc1ccccc1-n1nc2ccc3nonc3c2n1 this time
Solution: > 100 µM

Exercise: Same question, CCSC12CC3c4cccc5c4C(CN5C(=O)c4ccccc4)CC3(O1)N(C)C2=O (configuration not stated) this time
Solution: > 100 µM
